Value source: patent US8399502B2

System: Burkholderia pseudomallei (BP; Gram-negative)
assay method text: microbe, parasite or virus in culture
Type: cell-based
reported conditions: read-out: MIC BP
quantity measured: MIC (µg/mL)
Reply with just the number (in µg/mL).

Answered examples (3):
[[record]]
given_smiles = "C[N+](C)(C)CCOc1c2[nH]c3ccc(F)cc3c2cc2c1[nH]c1ccc(F)cc12.[I-]"
measured_result = 8

[[record]]
given_smiles = "Fc1ccc2[nH]c3c(OC[C@H]4CCCN4)c4[nH]c5ccc(F)cc5c4cc3c2c1"
measured_result = 8

[[record]]
given_smiles = "Clc1ccc2[nH]c3c(OCCCNC4CCNCC4)c4[nH]c5ccc(Cl)cc5c4cc3c2c1"
measured_result = 8


Shifting focus to the molecule that follows.
Kindly note the recorded MIC for `C/N=C(\NC)NCCCOc1c2[nH]c3ccc(Cl)cc3c2cc2c1[nH]c1ccc(Cl)cc12` , which is 4

* * *

Tested on: Vancomycin-Sensitive Enterococcus faecalis (VSE)
# reported MIC; entries follow
Reply with just the number (in µg/mL).

Answered examples (5):
[[record]]
molecule = "Fc1ccc2[nH]c3c(O[C@@H]4CCNC4)c4[nH]c5ccc(F)cc5c4cc3c2c1 [drawing 269]"
measured_result = 2

[[record]]
molecule = "N=C(N)NCCCOc1c2[nH]c3ccc(F)cc3c2cc2c1[nH]c1ccc(F)cc12 [drawing 268]"
measured_result = 8

[[record]]
molecule = "N=C(N)NCCCOc1c2[nH]c3ccc(Cl)cc3c2cc2c1[nH]c1ccc(Cl)cc12 [drawing 266]"
measured_result = 4

[[record]]
molecule = "Fc1ccc2[nH]c3c(OCCCNC4=NCCN4)c4[nH]c5ccc(F)cc5c4cc3c2c1 [drawing 270]"
measured_result = 4

[[record]]
molecule = "OC1CCN(CCCOc2c3[nH]c4ccc(Cl)cc4c3cc3c2[nH]c2ccc(Cl)cc23)CC1 [drawing 267]"
measured_result = 4


Shifting focus to the molecule that follows.
Kindly note the recorded MIC for CN(C)CCOc1c2[nH]c3ccc(F)cc3c2cc2c1[nH]c1ccc(F)cc12 [drawing 265] , which is 1

* * *

System: Yersinia pestis (YP; Gram-negative)
assay method text: microbe, parasite or virus in culture
Assay type: cell-based
reported conditions: read-out: MIC YP
quantity measured: MIC
Be sure to follow the number with its unit.

Answered examples (2):
[[record]]
molecule = "OC1CCN(CCCOc2c3[nH]c4ccc(Cl)cc4c3cc3c2[nH]c2ccc(Cl)cc23)CC1 [drawing 229]"
target_desc = "Yersinia pestis (YP; Gram-negative)"
measured_result = "2 µg/mL"

[[record]]
molecule = "Clc1ccc2[nH]c3c(OCCC4CCNCC4)c4[nH]c5ccc(Cl)cc5c4cc3c2c1"
target_desc = "Yersinia pestis (YP; Gram-negative)"
measured_result = "1 µg/mL"


Shifting focus to the molecule that follows.
Kindly note the recorded MIC for `NC1CCN(CCOc2c3[nH]c4ccc(Cl)cc4c3cc3c2[nH]c2ccc(Cl)cc23)CC1` , which is 16 µg/mL

* * *

Tested on: methicillin-resistant Staphylococcus aureus (MRSA)
assay method text: microbe, parasite or virus in culture
Assay type: cell-based
reported conditions: read-out: MIC MRSA
quantity measured: MIC

Kindly note the recorded MIC for Cc1onc(-c2ccccc2)c1C(=O)N[C@@H]1C(=O)N2[C@@H]1SC(C)(C)[C@@H]2C(=O)O [Oxacillin, oxacillin, reference compound] , which is > 64 µg/mL

Kindly note the recorded MIC for `CCOC(=O)c1ccc2[nH]cc(Cc3c(C)[nH]c4ccccc34)c2c1` , which is > 64 µg/mL

Kindly note the recorded MIC for `c1ccc2c(Cc3c[nH]c4ccccc34)c[nH]c2c1` , which is > 64 µg/mL

* * *

Test system: Burkholderia pseudomallei (BP; Gram-negative)
assay method text: microbe, parasite or virus in culture
Format: cell-based
reported conditions: read-out: MIC BP
# reported MIC; entries follow

Answered examples (3):
[[record]]
molecule = "NC1CCN(CCCOc2c3[nH]c4ccc(Cl)cc4c3cc3c2[nH]c2ccc(Cl)cc23)CC1"
measured_result = "> 16 µg/mL"

[[record]]
molecule = "Nc1nc(N)n(CCCOc2c3[nH]c4ccc(Cl)cc4c3cc3c2[nH]c2ccc(Cl)cc23)n1"
measured_result = "> 8 µg/mL"

[[record]]
molecule = "Fc1ccc2[nH]c3c(OCCCNC4=NCCN4)c4[nH]c5ccc(F)cc5c4cc3c2c1 [drawing 234]"
measured_result = "> 8 µg/mL"


Form field MIC for item `CN(C)CCOc1c2[nH]c3ccc(F)cc3c2c(Br)c2c1[nH]c1ccc(F)cc12` on Burkholderia pseudomallei (BP; Gram-negative): > 8 µg/mL

Form field MIC for item `N[C@H]1CCN(CCCOc2c3[nH]c4ccc(Cl)cc4c3cc3c2[nH]c2ccc(Cl)cc23)C1` on Burkholderia pseudomallei (BP; Gram-negative): > 8 µg/mL
